From: PubChem BioAssay (NCI)

Test: NCI Yeast Anticancer Drug Screen. Data for the cln2 rad14 strain (AID 165);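 further: 0% = growth equal to vehicle treated cultures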
Settings: S. cerevisiae cln2 rad14 strain, at 50.0 µM, hits give high values
Compounds without any hit were thinned out: in the full panel of roughly 79,000, 15% have a hit. Active and inactive are the calls of the source. No stated cut-off is given here; in the data, active means growth inhibition above about 70%; inactive means the rest.
Reported growth inhibition by item:

Compound	growth inhibition
CCOC(=O)c1sc(N)nc1O	5.85% (inactive)
CCOC(=O)CNC(=O)C(Cc1ccccc1)NC(=O)c1ccccc1NC(=O)c1ccccc1 (stereo unspecified)	13.3% (inactive)
CCOC(=O)/C(CC)=N\O	3.25% (inactive)
O=C(O)c1cccc(C(=O)O)[n+]1[O-]	2.4% (inactive)
CCN(CC)CC(=O)Nc1c(C(N)=O)nnn1Cc1cc(Cl)c(C(=O)c2ccc(Cl)cc2)c(Cl)c1	7.95% (inactive)
[O-]c1c(Cl)c(Cl)c(O[P+](c2ccccc2)(c2ccccc2)c2ccccc2)c(Cl)c1Cl	97.9% (active)
O=C(COc1ccc(Cl)cc1Cl)Nc1ccc(N=Nc2ccccc2)cc1	-3.65% (inactive)
Cc1cccc(C)c1NC(=O)C(Cl)Cl	5.05% (inactive)
Fc1ccc(CSc2cnnc(SCc3ccc(F)cc3)c2SCc2ccc(F)cc2)cc1	-21.9% (inactive)
CC1(C)N=C(N)N=C(N)N1c1ccc(C(=O)c2ccccc2)cc1	-3.1% (inactive)
C=CCC1C(=O)NN=C1C (stereo unspecified)	-22.5% (inactive)
C=CCO[Si](OCC=C)(OCC=C)OCC=C	13.9% (inactive)
CCCCCCN(CCCCCC)C(=S)N/N=C(\C)c1ccccn1	72.3% (active)
O=C1OC(/C=C/c2ccccc2)=NC/1=C\c1ccc(Cl)cc1	13.7% (inactive)
CCC(CC)C(=O)O	-22.5% (inactive)
CC(=O)CC(=O)Nc1ccc(Cc2ccc(NC(C)=O)cc2)cc1	5.55% (inactive)
Cc1ccc2cccc(-c3cccc4ccccc34)c2n1	-0.05% (inactive)
COc1ccc(/C=[N+](\[O-])[C@H](COCc2ccccc2)c2ccccc2)cc1	-1.6% (inactive)
COc1cccc2c1CCC1(O)OC(=O)CC21 (stereo unspecified)	2.1% (inactive)
COc1c(C)c(C)c(OC(C)=O)c(C)c1COC(C)=O	25.6% (inactive)
O=NN(CCF)C(=O)N[C@H]1CCCC[C@H]1O	2.75% (inactive)

* * *

Assay: NCI Yeast Anticancer Drug Screen. Data for the sgs1 mgt1 strain (AID 161);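 further: 0% = growth of cultures given vehicle only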
Details: S. cerevisiae sgs1 mgt1 strain, at 50.0 µM, hits give high values
The panel holds about 79,000 compounds, 15% with a hit somewhere; the sample as a whole holds those more often.
Below is a list of entries, each paired with its recorded growth inhibition value.
Readout name: growth inhibition (%)

Compound	Readout name	Value measured
CC(=O)OC1OC(c2ccoc2)C[C@@]12C1CCC3O[C@]3(C)[C@]1(C)C[C@H](OC(C)=O)[C@H]2C (some centres not stated)	growth inhibition	-41.5
CN(N=O)C(=O)NCCc1ccccc1	growth inhibition	11.6
COC(=O)c1ccc(C2CCC(OC(c3ccccc3)c3ccccc3)CC2)cc1 (configuration not stated)	growth inhibition	26
COC(=O)/C=C/C(=O)OC	growth inhibition	19.4
c1ccc(C2=Nc3ccccc3N=C3CCCC32)cc1 (configuration not stated)	growth inhibition	3.3
O=C(N/N=C/c1cccnc1)C(O)C(O)C(O)C(O)CO (configuration not stated)	growth inhibition	6.75
SCCNCc1ccco1	growth inhibition	-15.9
Cc1cccnc1Br	growth inhibition	-5.05
CN1CC=C(C#CC(C)(C)O)CC1	growth inhibition	-0.65
O=C(CCCCl)c1ccc(O)cc1	growth inhibition	2.75
CC(=O)C1(C)CCC2C3CCC4=CC(=O)CCC4=C3CCC21C (configuration not stated)	growth inhibition	50.9
CCCCC(C(=O)OCC)[N+](=O)[O-] (configuration not stated)	growth inhibition	2.5
CCC1CN2CCc3cc(OC)c(OC)cc3C2CC1CC1c2cc(OC)c(OC)cc2CCN1C(=O)C1CCCN1 (configuration not stated)	growth inhibition	12.1
CCC(O)(c1ccccc1)C(OC)c1ccccc1 (configuration not stated)	growth inhibition	14.5
CCOc1ccc(/C=C2\C=Nc3ccccc32)cc1	growth inhibition	3.2
O=C(NCCCN(CCCCN(CCCNC(=O)C(F)(F)F)Cc1ccc2ccccc2c1)Cc1ccc2ccccc2c1)C(F)(F)F	growth inhibition	88.5
COC1OC(CO)C(O)C(OCc2ccccc2)C1OCc1ccccc1 (configuration not stated)	growth inhibition	-5.35
O=C(CC(O)(C(F)(F)F)C(F)(F)F)c1ccc(Br)cc1	growth inhibition	5.45
Cc1cc(C)c(-c2cc(C(O)C3OC4OC(C)(C)OC4C3O)on2)c(C)c1 (configuration not stated)	growth inhibition	-1.3
COc1ccc(C2(C)OCCCC2([NH-])C[NH-])cc1.[Cl][Pt+2][Cl] (configuration not stated)	growth inhibition	-2.95
CCOC(=O)c1ccc(NC(=O)/C=C/C(=O)O)cc1	growth inhibition	-2.9
CN(C)C(=O)c1ccc(-c2ccccc2)cc1O	growth inhibition	0.05
Cc1ccc(N=C(N)N)cc1	growth inhibition	1.05
O=c1[nH]cc(C2OCC(O)C(O)C2O)c(=O)[nH]1 (configuration not stated)	growth inhibition	0.5
CCCCC(C)NC(=O)c1ccccc1 (configuration not stated)	growth inhibition	-23.8
O=C1C=C(Nc2ccc(S(=O)(=O)Nc3ncccn3)cc2)c2ccccc2C1=O	growth inhibition	50.1
Fc1c(F)c(-c2c(F)c(F)c(Br)c(F)c2F)c(F)c(F)c1Br	growth inhibition	-7.45
